This collection of values is drawn from patent US11492335B2.

- system: recombinant human DAO (diamine oxidase) (Homo sapiens, UniProt P19801)
- Construct: purchased R&D systems
- Sequence (P19801 20-751): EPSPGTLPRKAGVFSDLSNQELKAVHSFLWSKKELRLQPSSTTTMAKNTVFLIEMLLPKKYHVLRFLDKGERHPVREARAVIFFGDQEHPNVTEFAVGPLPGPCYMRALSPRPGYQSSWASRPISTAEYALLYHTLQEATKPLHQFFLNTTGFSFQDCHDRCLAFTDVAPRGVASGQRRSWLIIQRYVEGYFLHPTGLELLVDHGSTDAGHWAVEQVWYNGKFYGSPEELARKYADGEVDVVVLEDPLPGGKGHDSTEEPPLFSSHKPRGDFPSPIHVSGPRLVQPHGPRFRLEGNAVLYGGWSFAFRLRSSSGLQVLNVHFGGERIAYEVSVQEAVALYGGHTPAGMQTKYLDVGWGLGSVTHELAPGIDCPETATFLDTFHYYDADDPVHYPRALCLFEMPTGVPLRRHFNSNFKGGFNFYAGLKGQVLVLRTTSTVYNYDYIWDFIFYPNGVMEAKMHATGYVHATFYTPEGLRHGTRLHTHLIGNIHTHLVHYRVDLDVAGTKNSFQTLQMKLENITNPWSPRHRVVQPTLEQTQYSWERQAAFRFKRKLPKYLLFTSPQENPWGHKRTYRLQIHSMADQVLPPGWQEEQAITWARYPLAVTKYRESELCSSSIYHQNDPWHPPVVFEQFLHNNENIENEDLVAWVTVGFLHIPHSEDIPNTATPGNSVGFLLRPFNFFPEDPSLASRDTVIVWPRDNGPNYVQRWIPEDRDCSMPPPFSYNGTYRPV
- test.description: Activity on recombinant human DAO, Amplex Red method, 1 mM putrescine substrate
- Format: biochemical
- assay.setup: recombinant human DAO, 1 mM putrescine; * = between 10 and 100 nM, ** = between 300 and 1000 nM; read-out: Inhibitory Activity (IC50, nM) DAO
Counter-ions that a name gives are not always drawn.
observed.property: IC50

Example cases with answers are listed next.
NC/C(=C/F)Cn1ncn(-c2ccc(F)c(F)c2)c1=O [Example 9]: 290 nM
CC(=O)Nc1ccc(-c2ccc(-n3cnn(C/C(=C\F)CN)c3=O)nc2)cc1 [Example 130, hydrochloride]: 1 to 10 nM
NC/C(=C\F)Cn1ncn(-c2cccc(-c3ccc(Cl)nc3)c2)c1=O [Example 85, hydrochloride]: < 10 nM

Quote IC50 reported for NC/C(=C\F)Cn1ncn(-c2cccc(-c3cccc(-c4ccc5c(c4)OCO5)c3)c2)c1=O [Example 71, hydrochloride] please. < 30 nM

Fill in reported IC50 for this entry: COc1cc(N2CCOCC2)c(Br)cc1-n1cnn(C/C(=C/F)CN)c1=O [Example 47, hydrochloride] 1200 nM

Specify measured IC50 for NC/C(=C\F)Cn1ncn(-c2ccc(-c3cccc(-c4nnc[nH]4)c3)cc2F)c1=O [Example 44] . < 100 nM

Give IC50 for the following molecule: NC/C(=C/F)Cn1ncn(-c2ncc(Br)cc2F)c1=O [Example 35, hydrochloride] 14 nM

Specify IC50 for COc1ccc(-c2cccc(-n3cnn(C/C(=C/F)CN)c3=O)c2)cn1 [Example 83, hydrochloride] and stop. < 30 nM
